system: Cell-based STAT3 reporter inhibition, counterscreen; experiment: STAT3 inhibitors in reporter cells, dose response, counter-screen for STAT1 inhibitor project (AID 1409)
Activity calls are given as the source filed them. How the calls were made is not given here.
// allowed return values: True (active), False (inactive)

Query: What outcome does the record of this test show for O=C(c1ccco1)N1CCN(c2ncnc3c2[nH]c2ccccc23)CC1 ?
Result: False

Query: Would you mind telling me which call this test gave O=C(NNC(=O)c1cccc(S(=O)(=O)N2CCc3ccccc32)c1)c1ccccc1 ?
Result: False

Query: Outcome? Cc1ccc(C2=Nc3c(ccc4ccccc34)C(c3ccncc3)=NN2)cc1
Result: False

Query: Tell me the recorded outcome of this test for COC(=O)CCS(=O)(=O)c1nc(-c2ccccc2)cc(C(F)(F)F)n1 .
Result: False

Query: # lookup: test call for COc1ccc(-n2c(SCc3cccnc3)nc3c(c2=O)SCC3)cc1OC
Result: False

Query: Would you mind telling me which call this test gave O=C(c1ccc(Cl)cc1)N1CCN(c2ccnc3cc(Cl)ccc23)CC1 ?
Result: False

Query: # lookup: test call for CC1C(=O)NN=C1C(=O)N/N=C\C(Br)=C\c1ccccc1 (stereo unspecified)
Result: False

Query: Any idea what this test logged for COc1ccc(-c2cc(C(F)(F)F)nc(S(=O)(=O)CCCC(=O)Nc3cccc(O)c3)n2)cc1OC ?
Result: False

Query: Could you kindly confirm the outcome this assay logged for CN1CCN(Cc2nc3ccccc3c(=O)n2Cc2nc(-c3ccc4ccccc4c3)cs2)CC1 ?
Result: False

Query: Which outcome did this test record for the compound C#Cc1ccc([C@H]2C=C(C(=O)OCC=C)O[C@@H](OCC)[C@@H]2CCCO)cc1 ?
Result: False

Query: Which outcome was entered for the compound Cc1ccc(C(=O)Nc2cccc(N(C)S(C)(=O)=O)c2)cc1S(=O)(=O)Nc1ccccc1 in this test?
Result: False

###

tested on: Cell-based STAT3 reporter inhibition, counterscreen; assay: STAT3 inhibitors in reporter cells, dose response, counter-screen for STAT1 inhibitor project (AID 1409)
Active and inactive are the calls of the source. The rule behind the calls is not given here.
measuredProperty: IC50

Check out these entries, answers already filled in.
[
  {
    "chemicalStructure": "COC(=O)C1=CN(Cc2ccc(OC)c(OC)c2)C=C(C(=O)OC)C1c1cccs1",
    "IC50": "> 55.7 µM (inactive)"
  },
  {
    "chemicalStructure": "O=C(c1ccco1)N1CCN(c2ncnc3c2[nH]c2ccc(Br)cc23)CC1",
    "IC50": "25.6 µM (inactive)"
  },
  {
    "chemicalStructure": "CN1CCN(Cc2nc3ccccc3c(=O)n2Cc2nc(-c3cccc([N+](=O)[O-])c3)cs2)CC1",
    "IC50": "> 55.7 µM (inactive)"
  }
]

Hey, quick one: what's IC50 for each of these?
1. CCn1c(=O)c2cc(C(=O)N3CCCC3)sc2c2ccccc21
2. COc1ccc(-c2cc(C(F)(F)F)nc(S(=O)(=O)CCCC(=O)Nc3cccnc3Cl)n2)cc1OC
3. COc1ccccc1-c1cc(C(F)(F)F)nc(S(=O)(=O)CCCC(=O)Nc2cccnc2Cl)n1
4. COc1ccccc1CNc1ncnc2cc(Cl)ccc12
5. COc1ccc(CCNC(=O)Cn2c(=O)n(-c3ccc(F)cc3)c(=O)c3sccc32)cc1OC
6. CCOC(=O)c1c(C)nc2sc3c(=O)n(-c4ccc(OC)cc4)nnc3c2c1-c1ccc(OC)cc1
7. CCOC(=O)CCS(=O)(=O)c1nc(-c2ccccc2)cc(C(F)(F)F)n1
8. Cc1ccc2[nH]c3c(N4CCN(Cc5ccccc5)CC4)ncnc3c2c1

Result:
1. > 55.7 µM (inactive)
2. 32.6 µM (inactive)
3. 34.6 µM (inactive)
4. > 55.7 µM (inactive)
5. > 55.7 µM (inactive)
6. > 55.7 µM (inactive)
7. 24.2 µM (inactive)
8. 16.2 µM (inactive)

Query: Quick one: IC50 of Cc1ccc(-n2nc(C(=O)O)c3ccccc3c2=O)cc1C ?
Result: > 55.7 µM (inactive)
